Target: Tyrosine-protein phosphatase non-receptor type 7 (Homo sapiens, UniProt P35236)
Sequence (P35236 whole entry): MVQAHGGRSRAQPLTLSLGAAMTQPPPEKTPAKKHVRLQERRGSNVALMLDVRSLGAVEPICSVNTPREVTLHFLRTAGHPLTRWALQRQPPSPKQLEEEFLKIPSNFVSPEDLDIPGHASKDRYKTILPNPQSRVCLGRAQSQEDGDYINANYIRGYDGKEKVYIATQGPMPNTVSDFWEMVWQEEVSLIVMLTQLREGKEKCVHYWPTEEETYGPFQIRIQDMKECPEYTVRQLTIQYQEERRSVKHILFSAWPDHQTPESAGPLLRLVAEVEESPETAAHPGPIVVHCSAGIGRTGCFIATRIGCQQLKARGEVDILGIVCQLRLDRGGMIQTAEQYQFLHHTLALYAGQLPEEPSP
EXPERIMENTAL READOUT: pIC50
Please report pIC50 as the negative decimal logarithm of the molar concentration, giving only the number.

// below: answered molecules
>  <SMILES CODE>
COc1ccc2cc(C#N)c(SCC(=O)Nc3cccc(C)c3C)nc2c1

>  <pIC50>
4.82

$$$$
>  <SMILES CODE>
Cc1ccc(NC(=O)CSc2nc3c(C)c(C)ccc3cc2C#N)cc1C

>  <pIC50>
4.70

$$$$
>  <SMILES CODE>
Cc1ccc2cc(C#N)c(SCC(=O)NC3CCCCC3)nc2c1C

>  <pIC50>
5.10

$$$$
>  <SMILES CODE>
CCOc1ccc(NC(=O)CSc2nc3c(C)cc(C)cc3cc2C#N)cc1

>  <pIC50>
4.80

$$$$
>  <SMILES CODE>
Cc1ccc2sc(NC(=O)c3sc4ccccc4c3Cl)nc2c1

>  <pIC50>
5.10

$$$$

[Q] Consider the molecule Cc1ccc2cc(C#N)c(SCC(=O)Nc3ccc4c(c3)OCO4)nc2c1 . State its measured pIC50.
[A] 4.92

[Q] Consider the molecule Cc1cccc2cc(C#N)c(SCC(=O)Nc3cccc(Cl)c3)nc12 . State its measured pIC50.
[A] 4.66

---

biological target: Tyrosine-protein phosphatase non-receptor type 22 (Homo sapiens, UniProt Q9Y2R2)
EXPERIMENTAL READOUT: pKi
Please report pKi as the negative decimal logarithm of the molar concentration, giving only the number.

[Q] Give pKi only, for Cc1ccc2[nH]c(=O)c(C(c3nnnn3C3CCCC3)N3CCN(C(c4ccccc4)c4ccccc4)CC3)cc2c1 (stereo unspecified) , using Tyrosine-protein phosphatase non-receptor type 22 (Homo sapiens, UniProt Q9Y2R2) data.
[A] 4.67

---

Target: Tyrosine-protein phosphatase non-receptor type 22 (Homo sapiens, UniProt Q9Y2R2)
Sequence (Q9Y2R2 whole entry): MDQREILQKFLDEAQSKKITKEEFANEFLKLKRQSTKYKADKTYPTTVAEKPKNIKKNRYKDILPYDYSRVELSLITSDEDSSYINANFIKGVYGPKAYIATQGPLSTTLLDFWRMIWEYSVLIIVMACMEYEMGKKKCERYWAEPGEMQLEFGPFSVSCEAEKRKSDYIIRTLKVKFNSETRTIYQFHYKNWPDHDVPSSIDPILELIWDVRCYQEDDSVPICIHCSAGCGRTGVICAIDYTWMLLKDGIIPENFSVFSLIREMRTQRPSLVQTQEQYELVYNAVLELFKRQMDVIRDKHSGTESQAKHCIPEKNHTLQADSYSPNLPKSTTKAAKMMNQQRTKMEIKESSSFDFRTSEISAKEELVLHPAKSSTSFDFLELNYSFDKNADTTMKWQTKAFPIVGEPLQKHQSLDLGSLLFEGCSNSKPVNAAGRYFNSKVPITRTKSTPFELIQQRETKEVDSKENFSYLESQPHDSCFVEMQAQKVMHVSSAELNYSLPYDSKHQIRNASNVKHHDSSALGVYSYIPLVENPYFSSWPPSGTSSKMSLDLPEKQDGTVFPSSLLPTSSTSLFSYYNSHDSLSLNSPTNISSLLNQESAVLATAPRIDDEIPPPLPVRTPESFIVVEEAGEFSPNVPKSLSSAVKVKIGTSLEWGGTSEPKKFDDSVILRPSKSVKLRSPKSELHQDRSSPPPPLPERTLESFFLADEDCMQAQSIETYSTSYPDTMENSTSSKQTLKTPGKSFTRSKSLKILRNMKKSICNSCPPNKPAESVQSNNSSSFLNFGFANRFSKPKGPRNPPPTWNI
EXPERIMENTAL READOUT: IC50 (µM)
Give the value in µM but do not write µM after it.

// below: answered compounds
>  <COMPOUND>
Cc1ccc2cc(C#N)c(SCC(=O)NC3CCCCC3)nc2c1C

>  <IC50, µM>
19.8

$$$$
>  <COMPOUND>
Cc1ccc2cc(C#N)c(SCC(=O)Nc3ccc4c(c3)OCO4)nc2c1

>  <IC50, µM>
23.3

$$$$

[Q] Consider the compound Cc1ccc2[nH]c(=O)c(C(c3nnnn3C3CCCC3)N3CCN(c4ccccc4)CC3)cc2c1 (stereo not given) . State its measured IC50.
[A] 30.7

The reported measurements were obtained from ChEMBL document CHEMBL2157931.
